Peptide text beside a SMILES is read from it. * marks the point of attachment. DEAC = CCN(CC)c1ccc2cc(C(=O)*)c(=O)oc2c1
Readout type: maximum absorption peak
Reply with a number, then the unit it belongs to.

1) CCN(CC)c1ccc2cc(C(=O)NCCCC[C@H](N)C(=O)N[C@@H](Cc3ccccc3)C(=O)N[C@@H](Cc3ccccc3)C(=O)O)c(=O)oc2c1 [F-Cou, Lys(Cou)-Phe-Phe-OH] : 430 nm

Pending molecule:
Find the recorded maximum absorption peak belonging to CCN(CC)c1ccc2cc(C(=O)NCCCC[C@H](NC(=O)[C@H](CCCNC(=N)N)NC(=O)[C@H](CCCNC(=N)N)NC(=O)[C@@H](NC(=O)[C@H](CCCNC(=N)N)NC(C)=O)C(C)C)C(=O)N[C@@H](Cc3ccccc3)C(=O)N[C@@H](Cc3ccccc3)C(=O)O)c(=O)oc2c1 [RF-Cou, Ac-Arg-Val-Arg-Arg-Lys(Cou)-Phe-Phe-OH] (Ac-RVRRK(DEAC)FF-OH) and report it.
430 nm

###

- Procedure summary: physchem
Peptide text beside a SMILES is read from it. * marks the point of attachment. DEAC = CCN(CC)c1ccc2cc(C(=O)*)c(=O)oc2c1
// reported logP for each item listed
Respond with the number and no other words.

1. CCN(CC)c1ccc2cc(C(=O)NCCCC[C@H](N)C(=O)N[C@@H](Cc3ccccc3)C(=O)N[C@@H](Cc3ccccc3)C(=O)O)c(=O)oc2c1 : 1.15

Pending compound:
Find the recorded logP belonging to CCN(CC)c1ccc2cc(C(=O)NCCCC[C@H](NC(=O)[C@H](CCCNC(=N)N)NC(=O)[C@H](CCCNC(=N)N)NC(=O)[C@@H](NC(=O)[C@H](CCCNC(=N)N)NC(C)=O)C(C)C)C(=O)N[C@@H](Cc3ccccc3)C(=O)N[C@@H](Cc3ccccc3)C(=O)O)c(=O)oc2c1 [RF-Cou, Ac-Arg-Val-Arg-Arg-Lys(Cou)-Phe-Phe-OH] (Ac-RVRRK(DEAC)FF-OH) and report it.
-1.46
